Recorded t1/2 by entry
# STUDY SYSTEM: natural Fel d1 (cat (Felis domesticus)) (UniProt P30438)
# METHOD SUMMARY: SPR, mAb captured, nFel d1 injected, 25 C
Return type: number; implicit unit min.

Consider the worked cases shown below.
- BINDER: "H4H2592B (antibody, human IgG4, V domains shown) VH: QVQLVESGGGLVKPGGSLRLSCAASGFTFSDYYMNWIRQAPGKGLEWISYISSSGSTTYYADSVKGRFTISRDNAKNSLFLQMNSLRGEDTAVYYCARDGRYNTVAGDYWGQGTTVTVSS VL: EIVMTQSPDFQSVAPKEKVTITCRASQNIGGSLHWYQQKPDQSPKLLIKYASQSFSGVPSRFSGSGSGTDFTLTINSLEAEDAATYYCLQSYTLRTFGQGTKVEIKR"
  t1/2 (min): 16
- BINDER: "H4H2590S (antibody, human IgG4, V domains shown) VH: QVQLVESGGGLVKPGGSLRLSCAASGFTFSDYYMNWIRQAPGKGLEWISYISSGGSTTYYADSVKGRFTISRDNAKNSLYLQMNSLRAEDTAVYYCARDGKYNTSPGDYWGQGTLVTVSS VL: EIVLTQSPDFQSVTPKEKVTITCRASQSIGSSLHWYQQKPDQSPKLLIKYASQSFSGVPSRFSGSGSGTDFTLTINSLEAEDAATYYCLQSSSLRTFGQGTKVDIK"
  t1/2 (min): 14
- BINDER: "H4H2597B (antibody, human IgG4, V domains shown) VH: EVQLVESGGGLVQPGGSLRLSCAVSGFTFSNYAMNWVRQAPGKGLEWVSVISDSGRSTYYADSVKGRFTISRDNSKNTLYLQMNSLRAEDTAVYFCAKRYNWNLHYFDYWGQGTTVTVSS VL: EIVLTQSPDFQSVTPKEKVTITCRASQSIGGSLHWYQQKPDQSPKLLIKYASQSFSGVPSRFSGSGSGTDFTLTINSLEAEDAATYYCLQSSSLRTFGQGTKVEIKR"
  t1/2 (min): 8

Moving on to another binder below.
Can you look up the measured t1/2 of H1M1241N (antibody, V domains shown) VH: EVQLVESGGGLVKPGGSLRLSCAASGFTFSSYSMNWVRQAPGKGLEWVSSISSRSSYIYYADSVKGRFTISRDNAKNSLYLQMNSLRAEDTAVYYCARDHIVVVPGASYYYYGMDVWGQGTTVTVSS VL: DIQMTQSPSSLSASVGDRVTITCRASQGIRNDLGWYQQKPGKAPKRLISAASSLQSGVPSRFSGSGSGTEFTLTISSLQPEDFATYYCLQHNSYPLTFGGGTKVEIK for me?
17

The values you see were collected from patent US20200255503A1.
